test system: HuapoAI transgenic mice; test: Evaluation of triglyceride and cholesterol level in HuapoAI transgenic mice; format: in vivo; details: Mus musculus, 168 h; human apoAI transgenic mice, 30 mg/kg oral gavage daily for 7 days, FPLC area under the curve, over mice receiving vehicle; read-out: % HDLc Increase
outcomeMeasure: change in vivo at 30 mg/kg (%)
Field: numeric (%). Do not append units.

Query :: I'd like to know its change in vivo at 30 mg/kg. The compound in question is COc1ccc(OC(C)(Cc2ccc(OCCc3nc(-c4cccs4)oc3C)cc2)C(=O)O)cc1 (stereo not shown)
Result :: 89

Query :: I have this compound here, Cc1oc(C2CCCCC2)nc1CCOc1ccc(CC(C)(Oc2ccc(C(C)(C)C)cc2)C(=O)O)cc1 (stereo not shown) , and I need its recorded change in vivo at 30 mg/kg.
Result :: 141

Query :: Field request: change in vivo at 30 mg/kg | item: Cc1oc(-c2cccs2)nc1CCOc1ccc(C[C@](C)(Oc2ccccc2)C(=O)O)cc1
Result :: 85

Query :: Request the reported change in vivo at 30 mg/kg associated with Cc1oc(-c2cccs2)nc1CCOc1ccc(CC(C)(Oc2ccccc2)C(=O)O)cc1 (racemic)
Result :: 24

Query :: Any idea what its change in vivo at 30 mg/kg is? The compound is Cc1ccc(OC(C)(Cc2ccc(OCCc3nc(C4CCCCC4)oc3C)cc2)C(=O)O)cc1 (stereo not shown)
Result :: 96

Query :: Given the compound Cc1oc(C2CCCCC2)nc1CCOc1ccc(CC(C)(Oc2ccc(C3CCCCC3)cc2)C(=O)O)cc1 (stereo not shown) , what is its reported change in vivo at 30 mg/kg?
Result :: 95

Query :: Need change in vivo at 30 mg/kg, item Cc1cccc(OC(C)(Cc2ccc(OCCc3nc(C4CCCCC4)oc3C)cc2)C(=O)O)c1 (stereo not shown)
Result :: 72
